assay: Stability assessed as half life at pH 7.4 by HPLC; format: physicochemical; details: buffer
OUTCOME MEASURE: half-life (h)
Write it as a number; the unit h goes unstated.

May I ask what half-life has been recorded for C[C@]12CCC(=O)C=C1CC[C@@H]1[C@@H]2[C@@H](O)C[C@@]2(C)[C@H]1CC[C@]2(O)C(=O)COC(=O)CCc1ccccc1N ?
1.22

###

experiment: Stability assessed as half life at pH 2.6 by HPLC; type: physicochemical; details: buffer
OUTCOME MEASURE: half-life (min)
Write it as a number; the unit min goes unstated.

May I ask what half-life has been recorded for C[C@]12CCC(=O)C=C1CC[C@@H]1[C@@H]2[C@@H](O)C[C@@]2(C)[C@H]1CC[C@]2(O)C(=O)COC(=O)CCc1ccccc1N ?
54
